Values were extracted from patent US20120276102A1.

Parameter: Murine IL-21R-BaF3 Proliferation IC50. Scope: all listed entries.
Target: murine IL-21R expressed on cells (murine, UniProt Q9JHX3 20-529)
Sequence (Q9JHX3 20-529 limits assumed): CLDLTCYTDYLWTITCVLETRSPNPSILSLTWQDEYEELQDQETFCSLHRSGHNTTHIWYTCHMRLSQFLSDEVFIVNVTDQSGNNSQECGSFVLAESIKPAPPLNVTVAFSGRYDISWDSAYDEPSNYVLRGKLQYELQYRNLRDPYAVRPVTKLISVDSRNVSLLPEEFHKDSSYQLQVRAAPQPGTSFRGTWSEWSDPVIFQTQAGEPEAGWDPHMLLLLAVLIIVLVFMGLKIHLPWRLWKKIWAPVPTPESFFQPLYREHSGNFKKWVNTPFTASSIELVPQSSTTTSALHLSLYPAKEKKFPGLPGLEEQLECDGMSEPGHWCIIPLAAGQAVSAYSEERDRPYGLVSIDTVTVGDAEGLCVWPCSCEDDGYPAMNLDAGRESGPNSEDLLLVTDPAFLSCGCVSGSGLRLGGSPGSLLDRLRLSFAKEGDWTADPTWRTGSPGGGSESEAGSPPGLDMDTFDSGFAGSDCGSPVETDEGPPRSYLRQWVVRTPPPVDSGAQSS
Assay: cell-based or functional assay
# include the unit after the value

The cases that follow already have their Murine IL-21R-BaF3 Proliferation IC50 on record.
- AbA (antibody, V domains shown, Human IgG1/lambda, transiently expressed; also called VHP/VL2) VH: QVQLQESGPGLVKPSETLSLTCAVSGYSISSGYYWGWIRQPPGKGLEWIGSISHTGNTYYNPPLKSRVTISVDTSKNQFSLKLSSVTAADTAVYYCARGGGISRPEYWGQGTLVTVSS VL: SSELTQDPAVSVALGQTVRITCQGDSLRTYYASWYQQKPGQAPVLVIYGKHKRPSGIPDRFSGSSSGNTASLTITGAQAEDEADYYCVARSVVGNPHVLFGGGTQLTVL: 0.08 nM
- AbM (antibody, IgG1, V domains shown, As for AbA: IgG1/lambda, CDR3 graft, residue limits derived; also called VH6/VL13) VH: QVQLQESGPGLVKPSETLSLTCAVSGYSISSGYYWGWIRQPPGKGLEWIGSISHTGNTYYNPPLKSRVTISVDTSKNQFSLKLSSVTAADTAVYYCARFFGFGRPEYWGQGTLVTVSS VL: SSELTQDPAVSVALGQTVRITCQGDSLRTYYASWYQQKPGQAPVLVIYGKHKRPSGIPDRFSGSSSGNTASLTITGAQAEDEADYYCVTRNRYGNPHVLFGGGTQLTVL: 0.125 nM

# context switch: different binder, same Murine IL-21R-BaF3 Proliferation IC50
Inquiry: Which Murine IL-21R-BaF3 Proliferation IC50 value belongs to AbE (antibody, IgG1, V domains shown, As for AbA: IgG1/lambda, CDR3 graft, residue limits derived; also called VHP/VL14) VH: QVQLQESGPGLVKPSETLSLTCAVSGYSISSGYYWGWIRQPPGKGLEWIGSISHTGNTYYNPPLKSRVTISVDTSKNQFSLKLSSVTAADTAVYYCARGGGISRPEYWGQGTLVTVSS VL: SSELTQDPAVSVALGQTVRITCQGDSLRTYYASWYQQKPGQAPVLVIYGKHKRPSGIPDRFSGSSSGNTASLTITGAQAEDEADYYCMARSRKGNPHVLFGGGTQLTVL ?
Reply text: 0.04 nM
